Measured values drawn from PubChem BioAssay (NCI) for this set.

# System: SF-539 CNS
# experimental.protocol: NCI tumour cell line growth inhibition, 48 h
# maps each entry to its TGI

{"smiles.entry": "CC(=O)Nc1ccc(/C=C/c2ccc(NC(=O)Nc3ccc(/C=C/c4ccc(NC(C)=O)cc4S(=O)(=O)O)c(S(=O)(=O)O)c3)cc2S(=O)(=O)O)c(S(=O)(=O)O)c1", "TGI": "> 100 µM"}
{"smiles.entry": "CC1=CC(C)(C)N=C2SC(c3ccc(N)cc3)=NN12", "TGI": "> 100 µM"}
{"smiles.entry": "O=C(c1cccs1)N1CCc2ccccc2C1", "TGI": "> 100 µM"}

====

GI50: recorded values
# Test system: M14 melanoma
# experimental.protocol: NCI tumour cell line growth inhibition, 48 h

{"smiles.entry": "CCOC(=O)C1CCN(S(=O)(=O)/N=C2/NC(=O)NC2=C(Cl)Cl)CC1", "GI50": "1820 nM"}
{"smiles.entry": "C=C(C)[C@@H]1CC[C@]2(CO)CC[C@]3(C)[C@H](CC[C@@H]4[C@@]5(C)C=C(C#N)C(=O)C(C)(C)[C@@H]5CC[C@]43C)[C@@H]12", "GI50": "1550 nM"}
{"smiles.entry": "Cc1cc(C)c(NC(=O)c2sc3nc4c(cc3c2N)C(=O)CCC4)c(C)c1", "GI50": "2310 nM"}
{"smiles.entry": "COc1c(C(=O)/C=C/c2ccccc2)c(O)cc2occc12", "GI50": "8890 nM"}
{"smiles.entry": "COc1ccccc1CNCCCN1C(=O)c2ccc3c4c(ccc(c24)C1=O)C(=O)N(CCCNCCNCCCN)C3=O", "GI50": "2070 nM"}
{"smiles.entry": "O=C1/C(=C(/c2ccccc2)N2CCOCC2)Cc2ccccc21", "GI50": "1840 nM"}

====

# Test system: MDA-MB-231 breast
# experimental.protocol: NCI tumour cell line growth inhibition, 48 h

{"compound": "O=C(Nc1n[nH]c2cc(-c3ccccc3)ccc12)C1CC1", "target.or.system": "MDA-MB-231 breast", "TGI": "> 25 µM"}
{"compound": "C/C(=N/NC(N)=S)c1ccc[nH]1", "target.or.system": "MDA-MB-231 breast", "TGI": "> 100 µM"}
{"compound": "CC1CCCCNC1=S (stereo unspecified)", "target.or.system": "MDA-MB-231 breast", "TGI": "> 10 µM"}
{"compound": "Clc1ccc(-c2cc3nc4ccccc4nc3o2)cc1", "target.or.system": "MDA-MB-231 breast", "TGI": "> 100 µM"}
{"compound": "CCOC(=O)Cn1c(=O)ccn(COCCO)c1=O", "target.or.system": "MDA-MB-231 breast", "TGI": "> 100 µM"}
{"compound": "CCc1cc(Cc2cc(CC)c(NC(=O)C(=O)CC(=O)c3sc(-c4cccnc4)nc3C)c(CC)c2)cc(CC)c1NC(=O)C(=O)CC(=O)c1sc(-c2cccnc2)nc1C", "target.or.system": "MDA-MB-231 breast", "TGI": "> 100 µM"}

====

# Tested on: ACHN renal
# experimental.protocol: NCI tumour cell line growth inhibition, 48 h; in the data active = GI50 below about 0.43 µM; inactive = the rest
Outcome codes: active, inactive

{"smiles.entry": "O=S(=O)(c1ccc(NC(=S)NC23CC4CC(CC(C4)C2)C3)cc1)N1CCCCC1", "group.label": "inactive"}
{"smiles.entry": "COc1ccc2[nH]c3c4[nH]c5ccc(OC)cc5c4c4c(c3c2c1)C(=O)NC4=O", "group.label": "inactive"}
{"smiles.entry": "S=c1ssc(N2CCOCC2)c1Cl", "group.label": "inactive"}
{"smiles.entry": "C/C(=N\\Nc1ccc(Cl)cn1)c1ccc2ccccc2n1", "group.label": "inactive"}
{"smiles.entry": "CC(C)c1ccc(-c2cc(-c3cn[nH]c3-c3ccccn3)ccn2)cc1", "group.label": "inactive"}
{"smiles.entry": "COc1cc2c3c(n(CCCN)c(=O)c2cc1OC)-c1ccc(C#N)cc1C3=O", "group.label": "inactive"}
{"smiles.entry": "C[C@@H]1Nc2cc(NC(=O)OCCF)nc(N)c2N=C1c1ccccc1", "group.label": "active"}
